Ref: paper PMC3690454

systemUnderTest: 14-3-3δ (Homo sapiens, UniProt P63104)
Construct: hexa-His; made in house; host or cells: E. coli BL21(DE3) Star
Sequence (P63104 whole entry): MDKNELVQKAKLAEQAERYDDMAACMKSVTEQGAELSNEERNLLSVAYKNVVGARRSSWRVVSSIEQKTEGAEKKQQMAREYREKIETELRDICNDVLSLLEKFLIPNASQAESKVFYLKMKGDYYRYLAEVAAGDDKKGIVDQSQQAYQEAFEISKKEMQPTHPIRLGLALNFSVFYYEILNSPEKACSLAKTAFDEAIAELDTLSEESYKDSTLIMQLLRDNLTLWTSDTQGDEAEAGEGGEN
assayProtocol: Biolayer interferometry (Octet Red96) of candidate protein C-terminal peptides, Table S5
Assay type: binding
particulars: typical experiment (n ≥ 3)
Square brackets hold non-standard residues; d marks the D form. Peptide text beside a SMILES is read from it. * marks the point of attachment. Geranylgeranyl = CC(C)=CCC/C(C)=C/CC/C(C)=C/CC/C(C)=C/C*; Biotin = O=C1N[C@H]2[C@H](CS[C@H]2CCCCC(=O)*)N1; pT = C[C@@H](OP(=O)(O)O)[C@H](N)C(=O)O; pS = N[C@@H](COP(=O)(O)O)C(=O)O; Ahx = NCCCCCC(=O)O
valueKind: koff (s⁻¹)

• CC(C)=CCC/C(C)=C/CC/C(C)=C/CC/C(C)=C/CSC[C@H](NC(=O)[C@H](COP(=O)(O)O)NC(=O)[C@H](CO)NC(=O)[C@H](CCCCN)NC(=O)[C@H](CCCCN)NC(=O)[C@H](CCCNC(=N)N)NC(=O)[C@H](C)NC(=O)[C@H](CCCCN)NC(=O)CNC(=O)[C@@H]1CCCN1C(=O)CCCCCNC(=O)CCCC[C@@H]1SC[C@@H]2NC(=O)N[C@@H]21)C(=O)O [Rap1B] ({Biotin-Ahx}-PGKARKKS[pS]C(Geranylgeranyl)-OH) = 0.055
• CC(C)=CCC/C(C)=C/CC/C(C)=C/CC/C(C)=C/CSC[C@H](NC(=O)[C@@H](NC(=O)[C@H](CCCCN)NC(=O)[C@H](CO)NC(=O)[C@H](CCCCN)NC(=O)[C@H](CCCCN)NC(=O)[C@H](CC(=O)O)NC(=O)[C@H](CC(=O)O)NC(=O)CNC(=O)CNC(=O)CCCCCNC(=O)CCCC[C@@H]1SC[C@@H]2NC(=O)N[C@@H]21)[C@@H](C)OP(=O)(O)O)C(=O)O [PDE6C] ({Biotin-Ahx}-GGDDKKSK[pT]C(Geranylgeranyl)-OH) = 0.018
• CC[C@H](C)[C@H](NC(=O)[C@@H]1CCCN1C(=O)[C@@H](NC(=O)[C@@H]1CCCN1C(=O)CCCCCNC(=O)CCCC[C@@H]1SC[C@@H]2NC(=O)N[C@@H]21)[C@@H](C)O)C(=O)N[C@@H](CCCCN)C(=O)N[C@@H](CCCNC(=N)N)C(=O)NCC(=O)N[C@@H](CCCNC(=N)N)C(=O)N[C@@H](COP(=O)(O)O)C(=O)N[C@@H](CSC/C=C(\C)CC/C=C(\C)CC/C=C(\C)CCC=C(C)C)C(=O)O [RhoG] ({Biotin-Ahx}-PTPIKRGR[pS]C(Geranylgeranyl)-OH) = 0.035
• CC(C)=CCC/C(C)=C/CC/C(C)=C/CC/C(C)=C/CSC[C@H](NC(=O)[C@H](COP(=O)(O)O)NC(=O)[C@H](CCCCN)NC(=O)[C@H](CO)NC(=O)[C@H](CCCNC(=N)N)NC(=O)[C@H](CCCNC(=N)N)NC(=O)[C@H](CCC(=O)O)NC(=O)[C@@H](NC(=O)[C@H](CC(N)=O)NC(=O)[C@@H](NC(=O)CCCCCNC(=O)CCCC[C@@H]1SC[C@@H]2NC(=O)N[C@@H]21)[C@@H](C)O)[C@@H](C)O)C(=O)O [RPRG] ({Biotin-Ahx}-TNTERRSK[pS]C(Geranylgeranyl)-OH) = 0.022
